Data credit: patent US5519138A

- target under test: Angiotensin II-receptor (Rattus norvegicus, UniProt P25095)
- Construct: The tissue (rats lung) is homogenised in Tris-buffer; from tissue; host or cells: rat lung homogenate (washed 20,000x g pellet)
- Sequence (P25095 whole entry): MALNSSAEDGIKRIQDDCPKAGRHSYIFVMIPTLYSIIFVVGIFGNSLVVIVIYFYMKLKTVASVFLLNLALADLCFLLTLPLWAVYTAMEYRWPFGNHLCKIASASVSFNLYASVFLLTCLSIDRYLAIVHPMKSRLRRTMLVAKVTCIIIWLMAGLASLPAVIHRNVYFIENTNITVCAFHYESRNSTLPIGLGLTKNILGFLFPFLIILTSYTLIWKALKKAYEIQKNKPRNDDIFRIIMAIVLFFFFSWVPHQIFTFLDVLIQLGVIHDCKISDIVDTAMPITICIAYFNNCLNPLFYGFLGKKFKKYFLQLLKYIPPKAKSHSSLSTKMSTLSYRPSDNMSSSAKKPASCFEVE
- protocol text: Angiotensin II-receptor bonding
- Format: binding
- Experimental: Description of method: Angiotensin II-receptor bonding The tissue (rats lung) is homogenised in Tris-buffer (50 mMol Tris, 150 mMol NaCl, 5 mMol EDTA, pH 7.40) and centrifuged twice for 20 minutes at 20,000x g. The finished pellets are resuspended in incubating buffer (50 mMol Tris, 5 mMol MgCl2, 0.2% BSA, pH 7.40) 1:75, based on the moist weight of the tissue. […] The bound radioactivity is measured using a gamma-counter. […]
measured property: IC50 (nM)

INSERT INTO results (compound, target_under_test, unit, readout_value) VALUES
  ('CCCCc1nc2ccccc2n1Cc1ccc(NC(c2ccccc2)P(=O)(O)OCC)cc1 (stereo not shown)', 'Angiotensin II-receptor (Rattus norvegicus, UniProt P25095)', 'nM', 560);
